Numbers sourced from patent US20260242735A1.

Molecular target: human CD33 variant I47N (human, UniProt P20138 18-364)
Sequence (P20138 18-364 I47N limits assumed): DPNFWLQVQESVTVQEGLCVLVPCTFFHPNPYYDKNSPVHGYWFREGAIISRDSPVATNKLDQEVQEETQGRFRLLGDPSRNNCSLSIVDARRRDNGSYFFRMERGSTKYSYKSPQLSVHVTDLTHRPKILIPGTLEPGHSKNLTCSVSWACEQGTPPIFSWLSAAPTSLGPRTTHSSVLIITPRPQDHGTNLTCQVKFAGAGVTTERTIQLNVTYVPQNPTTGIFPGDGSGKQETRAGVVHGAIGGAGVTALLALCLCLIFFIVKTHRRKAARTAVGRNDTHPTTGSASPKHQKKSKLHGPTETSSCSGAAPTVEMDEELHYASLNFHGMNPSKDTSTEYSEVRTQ
Test: flow cytometry, IgG on cells expressing the mutant
Kindly state Mean % WT Binding for each of the entries shown.

Query string: Item Refmab #4 (antibody, human IgG1, V domains shown, Tested in IgG format; human IgG1 Fc silent (PG-LALA)) VH: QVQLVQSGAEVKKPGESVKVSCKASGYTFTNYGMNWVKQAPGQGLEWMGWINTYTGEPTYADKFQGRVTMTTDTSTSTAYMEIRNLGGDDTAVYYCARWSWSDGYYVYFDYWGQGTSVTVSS VL: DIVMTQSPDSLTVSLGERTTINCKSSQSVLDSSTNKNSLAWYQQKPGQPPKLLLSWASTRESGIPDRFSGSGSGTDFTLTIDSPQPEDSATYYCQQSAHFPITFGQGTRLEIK has what recorded Mean % WT Binding?
Result string: 74.8 % of WT

Query string: Which Mean % WT Binding is listed for Refmab #3 (antibody, human IgG1, V domains shown, Tested in IgG format; human IgG1 Fc silent (PG-LALA)) VH: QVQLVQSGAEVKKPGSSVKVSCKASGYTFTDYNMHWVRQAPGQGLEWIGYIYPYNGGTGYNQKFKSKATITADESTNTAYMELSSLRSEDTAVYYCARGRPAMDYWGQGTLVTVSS VL: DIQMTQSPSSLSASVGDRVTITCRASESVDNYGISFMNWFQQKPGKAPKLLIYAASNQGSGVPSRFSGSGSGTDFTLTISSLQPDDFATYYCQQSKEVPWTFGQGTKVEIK ?
Result string: 91.6 % of WT

Query string: # query: Mean % WT Binding of entry Refmab #1 (antibody, human IgG1, V domains shown, Tested in IgG format; human IgG1 (Absolute Antibody hP67.6, Cat. No. Ab00283-10.0); also called hP67.6) VH: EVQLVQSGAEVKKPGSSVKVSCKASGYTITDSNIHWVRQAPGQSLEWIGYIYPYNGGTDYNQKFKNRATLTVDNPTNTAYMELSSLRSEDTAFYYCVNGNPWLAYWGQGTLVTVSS VL: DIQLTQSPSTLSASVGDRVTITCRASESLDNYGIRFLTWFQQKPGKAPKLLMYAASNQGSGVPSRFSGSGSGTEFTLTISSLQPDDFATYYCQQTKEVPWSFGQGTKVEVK
Result string: 87.8 % of WT

Query string: Could you share which Mean % WT Binding value was measured for Refmab #2 (antibody, human IgG1, V domains shown, Tested in IgG format; human IgG1 Fc silent (PG-LALA)) VH: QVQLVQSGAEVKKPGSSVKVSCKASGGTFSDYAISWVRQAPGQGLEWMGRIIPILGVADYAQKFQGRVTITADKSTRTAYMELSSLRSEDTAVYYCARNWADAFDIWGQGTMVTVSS VL: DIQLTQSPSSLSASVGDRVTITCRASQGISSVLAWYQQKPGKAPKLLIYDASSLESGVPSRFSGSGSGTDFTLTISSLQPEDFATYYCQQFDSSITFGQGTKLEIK ?
Result string: 0.4 % of WT
